B1: NLV3 TCR beta chain (CDR3β only) (parent)
chain: ASSPTGGSPSPLH

Variants of: B1
Test: T-Switch: Jurkat TCRβ−/− cells expressing a CDR3 saturation-mutagenesis library, stained with two peptide-HLA-A*02:01 tetramers (original and novel peptide) plus anti-CD3, FACS-sorted into four gates, gDNA sequenced
Settings: with both tetramers (double-negative gate, binds neither): HLA-A*02:01 with … and with …, tetramers 1 µg/mL, 30 min on ice, SP, DP and SW gates expanded about 10 days between rounds ('two to three rounds of selection' in the Methods), gate DN: OPPOSITE: higher = more of the variant in the gate that binds neither peptide = LESS binding (or no expression; inferred). Fold enrichment of the CDR3 variant in one FACS gate of a two-tetram, unresolved parent, parent is a CDR3 fragment, scale: fold enrichment, numbering: sequential-on-construct, sequence starts at 1
Provide the reported enrichment of each item.
// return just the number, without any unit appended

Look up enrichment of […] (CDR3 as printed); G6M derived by comparing it with the table's wild-type CDR3 ASSPTGGSPSPLH and report it.
0.906

Look up enrichment of […] (CDR3 as printed); S3Y derived by comparing it with the table's wild-type CDR3 ASSPTGGSPSPLH and report it.
0.895

Look up enrichment of […] (CDR3 as printed); P4M derived by comparing it with the table's wild-type CDR3 ASSPTGGSPSPLH and report it.
0.718

The origin of these recorded values is paper PMC13397619.
